- targetOrSystem: human ether-à-go-go-related gene (hERG) potassium channel (human, UniProt Q12809)
- Sequence (Q12809 whole entry, looked up): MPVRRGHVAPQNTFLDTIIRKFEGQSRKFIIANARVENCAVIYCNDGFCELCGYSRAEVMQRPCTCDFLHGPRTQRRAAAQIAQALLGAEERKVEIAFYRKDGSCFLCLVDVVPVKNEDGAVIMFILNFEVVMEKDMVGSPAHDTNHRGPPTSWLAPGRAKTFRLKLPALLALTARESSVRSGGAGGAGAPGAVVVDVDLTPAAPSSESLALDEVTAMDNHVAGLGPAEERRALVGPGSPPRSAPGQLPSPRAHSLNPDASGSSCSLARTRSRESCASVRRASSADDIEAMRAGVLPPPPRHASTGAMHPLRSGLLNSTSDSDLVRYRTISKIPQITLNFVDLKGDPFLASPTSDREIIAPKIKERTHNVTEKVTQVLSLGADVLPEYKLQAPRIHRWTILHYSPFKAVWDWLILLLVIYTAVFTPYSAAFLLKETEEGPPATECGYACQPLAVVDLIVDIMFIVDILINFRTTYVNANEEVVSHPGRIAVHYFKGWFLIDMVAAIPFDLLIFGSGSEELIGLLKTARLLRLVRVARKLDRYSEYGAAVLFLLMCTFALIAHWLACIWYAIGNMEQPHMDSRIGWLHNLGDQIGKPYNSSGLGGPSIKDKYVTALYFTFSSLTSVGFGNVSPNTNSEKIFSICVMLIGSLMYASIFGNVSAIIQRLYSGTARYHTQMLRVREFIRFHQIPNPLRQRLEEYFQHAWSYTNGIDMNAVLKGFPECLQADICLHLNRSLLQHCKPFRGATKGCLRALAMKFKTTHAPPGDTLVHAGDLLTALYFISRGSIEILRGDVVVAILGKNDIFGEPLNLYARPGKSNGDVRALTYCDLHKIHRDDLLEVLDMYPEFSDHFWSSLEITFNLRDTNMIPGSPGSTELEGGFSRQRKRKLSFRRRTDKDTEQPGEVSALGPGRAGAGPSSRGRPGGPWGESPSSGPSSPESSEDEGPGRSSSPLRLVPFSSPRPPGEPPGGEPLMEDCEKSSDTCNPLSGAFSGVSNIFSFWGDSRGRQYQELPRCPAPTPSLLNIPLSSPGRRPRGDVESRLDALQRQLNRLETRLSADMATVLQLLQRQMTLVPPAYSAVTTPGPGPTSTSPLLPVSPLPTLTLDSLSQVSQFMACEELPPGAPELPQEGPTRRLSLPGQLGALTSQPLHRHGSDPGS
- experimentalDetails: primary screen, population patch clamp on CHO cells stably expressing hERG; higher = less effect of the substance
The whole screen tested about 310,000 compounds, of which about 14,000 (4.5%) showed an effect of 50% or more. Effects have a minus sign here. What follows is part of a selection rich in strong results, with near analogues and random picks from the rest.
measuredParameter: hERG current change (%, negative = inhibition) at 10uM (%)
Answer format: numeric, % implied, no suffix.

[
  {
    "molecule": "CCN(CC)C(=O)CSc1nnc(-c2ccncc2)n1N",
    "resultNumber": 13.4
  }
]

stdin: Please supply the value of reported hERG current change (%, negative = inhibition) at 10uM for the item CCC1C(=O)C(C)(C)C(=O)OC1c1ccc([N+](=O)[O-])cc1 (stereo not shown)
stdout: -7.26

stdin: Quickly give me recorded hERG current change (%, negative = inhibition) at 10uM for CC1C(=O)C(C)C(c2ccc([N+](=O)[O-])cc2)NC1c1ccc([N+](=O)[O-])cc1 (stereo not shown)
stdout: -46

stdin: Give hERG current change (%, negative = inhibition) at 10uM for COc1ccc(NC(=O)CN2CCOCC2)cc1.O=C(O)C(=O)O
stdout: 13

stdin: Please report the measured hERG current change (%, negative = inhibition) at 10uM for C#CCOC(=O)c1cc(Cl)c(=O)n(Cc2ccc(Cl)cc2Cl)c1
stdout: -18.8

stdin: Assign hERG current change (%, negative = inhibition) at 10uM to the following record: COc1cccc(CN2CCN(CC(=O)NCCc3ccccc3)CC2)c1
stdout: -11.8

stdin: Specify hERG current change (%, negative = inhibition) at 10uM for O=C(COC(=O)c1cc(S(=O)(=O)N2CCOCC2)ccc1F)NC1CCCCC1 and stop.
stdout: -2.25

stdin: Please give measured hERG current change (%, negative = inhibition) at 10uM of the following entry: CCC1C(=O)CC(c2ccc([N+](=O)[O-])cc2)NC1c1ccc([N+](=O)[O-])cc1 (stereo not shown)
stdout: -76.3

stdin: Return hERG current change (%, negative = inhibition) at 10uM (reported value) for this molecule: COc1ccc(N2CCN(CC(=O)Nc3ccc(C)c(C)c3)CC2)cc1
stdout: -17.3

stdin: Look up and report measured hERG current change (%, negative = inhibition) at 10uM for this entry: COc1ccc(NC(=O)CN2CCCCCC2)cc1OC
stdout: 3.79

* * *

hERG current change (%, negative = inhibition) at 10uM overview
- targetOrSystem: human ether-à-go-go-related gene (hERG) potassium channel (human, UniProt Q12809);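 further: peak tail current of the secondary pulse compared with the same well before compound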
- experimentalDetails: primary screen, population patch clamp on CHO cells stably expressing hERG; higher = less effect of the substance
- Description: Briefly, Chinese hamster ovary (CHO) cells stably expressing the hERG channel were dislodged from tissue culture flasks and dispensed into PPC plates. […] During the recording, background leak currents were estimated by a 100 ms step to -80 mV from an initial holding potential of -70 mV and subtracted from the subsequent current measurement. The campaign was conducted in two phases using slight differences in recording protocol. […]
The campaign covered roughly 310,000 compounds. About 14,000 (4.5%) showed an effect of 50% or more. The effect is printed as a negative number. The entries come from a sample that favours strong results as a whole.
Provide the reading as a plain figure in %.

[
  {
    "compound": "Cc1ccc(C(=O)Nc2cccc(C(F)(F)F)c2)cc1Nc1cncnc1.O=C(O)C(F)(F)F",
    "resultNumber": -74.3
  },
  {
    "compound": "Cc1ccc(C(=O)Nc2cccc(C(F)(F)F)c2)cc1Nc1ccccn1",
    "resultNumber": -67.4
  },
  {
    "compound": "Cc1ccc(C(=O)Nc2cccc(C(F)(F)F)c2)cc1Nc1cnccn1",
    "resultNumber": -38.4
  }
]

stdin: Note hERG current change (%, negative = inhibition) at 10uM for the compound shown: Cc1cccc(Nc2ncnc3nc[nH]c23)c1C
stdout: -12.5

stdin: Could you please provide reported hERG current change (%, negative = inhibition) at 10uM for O=c1oc2ccccc2cc1-c1cn2cccnc2n1 ? Thanks!
stdout: 1.91

* * *

- targetOrSystem: human ether-à-go-go-related gene (hERG) potassium channel (human, UniProt Q12809);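 further: peak tail current of the secondary pulse compared with the same well before compound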
- experimentalDetails: primary screen, population patch clamp on CHO cells stably expressing hERG; higher = less effect of the substance
- Method: Briefly, Chinese hamster ovary (CHO) cells stably expressing the hERG channel were dislodged from tissue culture flasks and dispensed into PPC plates. […] During the recording, background leak currents were estimated by a 100 ms step to -80 mV from an initial holding potential of -70 mV and subtracted from the subsequent current measurement. The campaign was conducted in two phases using slight differences in recording protocol. […]
Out of some 310,000 compounds screened, about 14,000 (4.5%) showed an effect of 50% or more. Effects have a minus sign here. The entries come from a sample that favours strong results as a whole.
This section presents compounds with their documented hERG current change (%, negative = inhibition) at 10uM values.
Kindly provide the numeric value in % only, without the unit symbol.

[
  {
    "compound": "O=C(/C(=C(/[O-])c1ccccc1)[n+]1ccccc1)c1ccc([N+](=O)[O-])cc1",
    "unitsLabel": "%",
    "resultNumber": 6.47
  },
  {
    "compound": "COc1ccc(-c2nn(-c3ccccc3)cc2CN2CCCO2)c(F)c1",
    "unitsLabel": "%",
    "resultNumber": 3.95
  },
  {
    "compound": "CS(=O)(=O)Nc1ccc(C(=O)Nc2ccccc2-c2ccccc2)cc1",
    "unitsLabel": "%",
    "resultNumber": -65.9
  },
  {
    "compound": "CCCC(C)C(=O)Nc1ccccc1C(=O)OCC (centres unmarked)",
    "unitsLabel": "%",
    "resultNumber": -4.39
  }
]

Please find the next compound below.
stdin: Return hERG current change (%, negative = inhibition) at 10uM (reported value) for this compound: CCc1ccccc1NC(=O)c1ccc(NS(C)(=O)=O)cc1
stdout: -42.1

* * *

- targetOrSystem: human ether-à-go-go-related gene (hERG) potassium channel (human);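 further: peak tail current of the secondary pulse compared with the same well before compound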
- experimentalDetails: primary screen, population patch clamp on CHO cells stably expressing hERG; higher = less effect of the substance
The whole screen tested about 310,000 compounds, of which about 14,000 (4.5%) showed an effect of 50% or more. Effects have a minus sign here. Shown is part of a subset that was picked to be rich in strong results.
Use -20% as the dividing line for hERG current change (%, negative = inhibition) at 10uM, with the line itself on the true (1) side and lower values as false (0).

Please review the entries below; each comes with its answer.
[
  {
    "molecule": "N#Cc1ccc(Oc2ccc(S(=O)(=O)N3CCCC3)cn2)cc1",
    "answerLabel": "false (0)"
  },
  {
    "molecule": "N#Cc1ccccc1Oc1ccc(S(=O)(=O)N2CCCCC2)cn1",
    "answerLabel": "false (0)"
  },
  {
    "molecule": "O=C(Nc1ccc2c(c1)OCO2)c1ccccc1SCC(=O)N1CCCC1",
    "answerLabel": "true (1)"
  },
  {
    "molecule": "CCn1cc(C(=O)O)c(=O)c2cnc(N3CCN(C(=S)Nc4ccc(F)cc4)CC3)nc21",
    "answerLabel": "true (1)"
  },
  {
    "molecule": "c1ccc(-c2nc3ccccc3s2)nc1",
    "answerLabel": "true (1)"
  },
  {
    "molecule": "Cn1c2c(c(=O)n(C)c1=O)C(c1ccc(Br)cc1)Nc1ccccc1O2 (stereo not shown)",
    "answerLabel": "true (1)"
  },
  {
    "molecule": "CCN(CCCNC(=O)CC(C(=O)N1CCc2ccccc21)n1ccnc1)c1cccc(C)c1 (stereo not shown)",
    "answerLabel": "false (0)"
  },
  {
    "molecule": "Oc1cc2c(cc1CN1CCc3ccccc3C1)OCO2",
    "answerLabel": "true (1)"
  },
  {
    "molecule": "CCOC(=O)C1=C(C)NC(=O)CC1c1ccccc1OC (stereo not shown)",
    "answerLabel": "true (1)"
  }
]

stdin: Decide: hERG current change (%, negative = inhibition) at 10uM of CCCN(CCC)CCCNC(=O)CC(C(=O)N1CCc2ccccc21)n1ccnc1 (stereo not shown) >= -20%?
stdout: true (1)

* * *

- targetOrSystem: human ether-à-go-go-related gene (hERG) potassium channel (human, UniProt Q12809);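 further: peak tail current of the secondary pulse compared with the same well before compound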
- experimentalDetails: primary screen, population patch clamp on CHO cells stably expressing hERG; higher = less effect of the substance
Hit rate of the full screen: of about 310,000 compounds, about 14,000 (4.5%) showed an effect of 50% or more. Effects have a minus sign here. Many of the other results were omitted from the sample, so strong results are more common in it than they were.
measuredParameter: hERG current change (%, negative = inhibition) at 10uM (%)
Expressed in %, but write only the number.

stdin: Indicate the recorded hERG current change (%, negative = inhibition) at 10uM value for this molecule: Cc1cc(=O)oc2cc(OS(C)(=O)=O)ccc12
stdout: 4.31

stdin: State its hERG current change (%, negative = inhibition) at 10uM: CCOc1ccc2c(=O)c(Oc3ccccc3)c(C)oc2c1
stdout: -6.41

stdin: Look up and state reported hERG current change (%, negative = inhibition) at 10uM for Cc1ccc(CNc2nc(C)nc3sc4c(c23)CCC4)cc1
stdout: -4.22

stdin: Report hERG current change (%, negative = inhibition) at 10uM for c1cncc(CNc2ncnc3sc4c(c23)CCCC4)c1
stdout: -78

stdin: Output hERG current change (%, negative = inhibition) at 10uM of CCCNc1ncnc2sc(C)c(C)c12
stdout: -1.05
